# systemUnderTest: Nicotinic acetylcholine receptor (Rattus leucopus, UniProt Q62594)
# Sequence (Q62594 whole entry): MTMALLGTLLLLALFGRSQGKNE
pKi: −log10 of the molar value.
Overview of recorded pKi for various compounds

Below: 3 compounds and their reported pKi.
>>> recordedresult("C=C(C=O)C[C@H]1C[C@H](O)[C@]2(C)O[C@@H]3C[C@@H]4O[C@@H]5C[C@]6(C)O[C@]7(C)CC[C@@H]8O[C@@H]9C[C@]%10(C)O[C@@H]%11C(C)=CC(=O)O[C@H]%11C[C@H]%10O[C@H]9C[C@@H](C)[C@H]8O[C@H]7C[C@H]6O[C@@]5(C)C/C=C\\[C@H]4O[C@H]3C[C@H]2O1")
5.70
>>> recordedresult("CNC(=O)Oc1ccc2c(c1)[C@]1(C)CCN(C)C1N2C (some centres undefined)")
"< 5.00"
>>> recordedresult("CN1[C@@H]2CC[C@H]1CC(OC(=O)[C@H](CO)c1ccccc1)C2 (some centres undefined)")
"< 5.00"

Query :: Form field: pKi recorded for COc1cc2c3cc1Oc1cc(ccc1O)CC1c4c(cc(OC)c(O)c4Oc4ccc(cc4)CC3[N+](C)(C)CC2)CC[N+]1(C)C (centres undefined) with Nicotinic acetylcholine receptor (Rattus leucopus, UniProt Q62594) (enter value)
Result :: < 5.00
